Taken from patent US20250011363A1.

# tested.target: acetylcholine receptor
# protocol: SPR, peptide at 10 uM on immobilised AchR
measured.property: Binding affinity (RU)

- binder: "RRWISK [6mer-1-28]"
  unit.spec: "RU"
  recorded.value: 125
- binder: "KKVISK [6mer-1-1]"
  unit.spec: "RU"
  recorded.value: 122
- binder: "KKVRTR [6mer-1-50]"
  unit.spec: "RU"
  recorded.value: 139
- binder: "KRQICK [6mer-1-15]"
  unit.spec: "RU"
  recorded.value: 123
- binder: "KRQIRK [6mer-1-5]"
  unit.spec: "RU"
  recorded.value: 135
- binder: "KRQIQR [6mer-1-13]"
  unit.spec: "RU"
  recorded.value: 147
- binder: "KKRIQR [6mer-1-42]"
  unit.spec: "RU"
  recorded.value: 139
- binder: "RRWQTR [6mer-1-49]"
  unit.spec: "RU"
  recorded.value: 149
- binder: "RKGITK [6mer-1-41]"
  unit.spec: "RU"
  recorded.value: 122
- binder: "KRLYQR [6mer-1-46]"
  unit.spec: "RU"
  recorded.value: 142
- binder: "KRWRLK [6mer-1-10]"
  unit.spec: "RU"
  recorded.value: 139
- binder: "RKWQQK [6mer-1-36]"
  unit.spec: "RU"
  recorded.value: 124
- binder: "KRRLLK [6mer-1-47]"
  unit.spec: "RU"
  recorded.value: 149
- binder: "RRSYTR [6mer-1-67]"
  unit.spec: "RU"
  recorded.value: 135
- binder: "RKVYQK [6mer-1-39]"
  unit.spec: "RU"
  recorded.value: 139
- binder: "KRLQCK [6mer-1-59]"
  unit.spec: "RU"
  recorded.value: 145
- binder: "KKWVLR [6mer-1-37]"
  unit.spec: "RU"
  recorded.value: 121
- binder: "RKRFLK [6mer-1-14]"
  unit.spec: "RU"
  recorded.value: 145
- binder: "KRSFTK [6mer-1-27]"
  unit.spec: "RU"
  recorded.value: 142
- binder: "KRSFYR [6mer-1-19]"
  unit.spec: "RU"
  recorded.value: 135
- binder: "KRQFTK [6mer-1-11]"
  unit.spec: "RU"
  recorded.value: 139
- binder: "RKSVTR [6mer-1-58]"
  unit.spec: "RU"
  recorded.value: 126
- binder: "KKWVSR [6mer-1-63]"
  unit.spec: "RU"
  recorded.value: 148
- binder: "RRQQTK [6mer-1-38]"
  unit.spec: "RU"
  recorded.value: 126
- binder: "RRGRQR [6mer-1-35]"
  unit.spec: "RU"
  recorded.value: 136
- binder: "KKSRYK [6mer-1-20]"
  unit.spec: "RU"
  recorded.value: 147
- binder: "RKSRCK [6mer-1-6]"
  unit.spec: "RU"
  recorded.value: 153
- binder: "RRRFLR [6mer-1-52]"
  unit.spec: "RU"
  recorded.value: 131
- binder: "KRSQYK [6mer-1-40]"
  unit.spec: "RU"
  recorded.value: 121
- binder: "RKWLYK [6mer-1-34]"
  unit.spec: "RU"
  recorded.value: 135
- binder: "RKRRSR [6mer-1-3]"
  unit.spec: "RU"
  recorded.value: 154
- binder: "KKRVLR [6mer-1-26]"
  unit.spec: "RU"
  recorded.value: 123
- binder: "RKVIRK [6mer-1-24]"
  unit.spec: "RU"
  recorded.value: 142
